test system: Fibrinogen (Alexa647-labelled); assay: fibrinogen binders on compound microarrays, profiling panel, artefact control for SMM control-protein annotation, biochemical, small-molecule microarray, 635/667 nm fluorescence (AID 1131); settings: fibrinogen-A647 binding fluorescence, higher = more signal;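 note: z-score merges 667 nm fluorescence with per-spot signal-to-noise over triplicate slides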
Catalogue of composite z-score values
quantity-kind: composite z-score

given-smiles: CCOC(=O)C[C@H]1[C@H](OC(=O)c2ccc(C(=O)c3ccccc3)cc2)[C@@H](NC(=O)Cc2ccc(OC)cc2)c2cc(OCCCO)ccc2N1C(=O)Cc1ccc(OC)cc1
result: 0.729
//
given-smiles: COCCOC(=O)N1C(=O)[C@@]2(c3ccccc31)[C@H](C(=O)Nc1nc3ccccc3s1)[C@H]1C(=O)O[C@H](c3ccccc3)[C@H](c3ccccc3)N1[C@@H]2c1ccc(O)cc1
result: 0.976
//
given-smiles: CC(C)C[C@@H]1NC(=O)[C@@H]2C[C@H](C(=O)NCCCCCNC(=O)CS)[C@H](c3cccc(OCCO)c3)N2C1=O
result: 0.837
//
given-smiles: COC(=O)C(CC#Cc1ccc2c(c1)[C@]1(C(=O)N2)[C@H](C(=O)O)[C@H]2C(=O)O[C@H](c3ccccc3)[C@H](c3ccccc3)N2[C@@H]1c1ccc(OCCO)cc1)C(=O)OC
result: 0.812
//
given-smiles: O=C(O)[C@H]1C[C@H]2C(=O)NCC(=O)N2[C@H]1c1cccc(OCCO)c1
result: 0.742
//
given-smiles: COc1ccc(C(=O)Nc2cccc(CN3C(=O)[C@@]4(O[C@@H](CCO)[C@H]([Si](C)(C)c5ccc(OC)cc5)[C@H]4C)c4ccccc43)c2)cc1
result: 0.795
//
given-smiles: C=C(CCCC)/C(=C/C[C@@H](OC(=O)c1ccncc1)c1ccc(OCCO)cc1)c1cnc2ccccc2c1
result: 0.577
//
given-smiles: COCCOC(=O)N1C(=O)[C@@]2(c3cc(C#CCNC(N)=O)ccc31)[C@H](c1ccccc1OCCO)N1[C@H](c3ccccc3)[C@H](c3ccccc3)OC(=O)[C@H]1[C@@H]2C(=O)Nc1nc2ccccc2s1
result: 0.283
//
given-smiles: C=CCNC(=O)[C@@H]1[C@H]2C(=O)O[C@H](c3ccccc3)[C@H](c3ccccc3)N2[C@H](c2ccc(O)cc2)[C@@]12C(=O)Nc1ccccc12
result: -0.0121
//
given-smiles: COc1ccc([Si](C)(C)[C@H]2[C@H](CCO)O[C@@]3(C(=O)N(Cc4ccc(N5C(=O)c6cccc7cccc5c67)cc4)c4ccccc43)[C@@H]2C)cc1
result: 0.193
//
given-smiles: O=C(NCc1ccccc1)[C@@H]1c2ccccc2C(=O)N(Cc2ccccc2Cl)[C@H]1c1ccc(CO)cc1
result: 0.562
//
given-smiles: CCCCCCC#C[Si](O[C@H](c1ccccc1)c1cn(Cc2ccccc2)nn1)(C(C)C)C(C)C
result: -0.418
//
given-smiles: COc1ccc([Si](C)(C)[C@H]2[C@H](CC(=O)N(CCO)Cc3ccccc3)O[C@@]3(C(=O)N(Cc4ccc(N5CCC5=O)cc4)c4ccccc43)[C@@H]2C)cc1
result: 0.158

* * *

test: binders of probe aFGF2 on microarray, primary screen, stem cell growth factor project, biochemical, small-molecule microarray, fluorescence 635/667 (AID 1067); details: higher = more signal;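 note: measures binding of biotinylated aFGF2 protein to printed compounds on slides; z-score merges feature fluorescence and signal-to-noise across triplicate slides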
Quick list: composite z-score per entry.

compound: COCCOC(=O)N1C(=O)[C@@]2(c3cc(C#CC4(O)CCCCCC4)ccc31)[C@H](c1ccc(O)cc1)N1[C@H](c3ccccc3)[C@H](c3ccccc3)OC(=O)[C@H]1[C@@H]2C(N)=O
composite z-score: 0.103
//
compound: O=C1c2ccccc2[C@@]2(Cc3ccccc3N(CC(F)(F)F)C2=O)[C@H](c2ccc(CO)cc2)N1Cc1ccccc1C(F)(F)F
composite z-score: -0.131
//
compound: CC(C)CCC[C@@H](C)[C@H]1CC[C@@]2(C)C3=C(CC[C@]12C)[C@@]1(C)CC[C@H](OC(=O)CCl)C(C)(C)C1CC3 (some centres not stated)
composite z-score: -0.0787
//
compound: Cc1ccc(N2C(=O)c3ccccc3[C@](C)(C(=O)NCC(F)(F)F)[C@@H]2c2ccc(CO)cc2)nc1
composite z-score: -0.128
//
compound: O=C(NCC(F)(F)F)[C@@H]1c2ccccc2C(=O)N(C2Cc3ccccc3C2)[C@H]1c1ccc(CO)cc1
composite z-score: -0.0487
//
compound: CC(C)C(CO)N1C(=O)[C@@H]2[C@H]3C(=O)OCC=C[C@H]3OC23C=CCN(Cc2ccccc2)C(=O)[C@@H]13 (some centres not stated)
composite z-score: -0.116
//
compound: COc1ccc(CCNC(=O)[C@@]2(Sc3ccc(C)cc3)CC(=O)N(Cc3ccccc3)[C@@H]2c2ccc(CO)cc2I)cc1
composite z-score: -0.187

Reference for the values: PubChem BioAssay
